A collection of compounds and their measured LEUKOCYTE COUNT
Species on record: Rattus norvegicus
Assay: DrugMatrix - Regimen: Daily Repeat
Format: toxicity, organism-based, Sprague-Dawley
Set-up: regimen Daily Repeat, gender Male, age 6-8 weeks
Conditions: in vivo, iv, 0 mg/kg, 120 h, tissue Blood, dose level Control, time 5 day, vehicle 100 % SALINE

- COMPOUND: "CCC1=C[C@@H]2CN(C1)Cc1c([nH]c3ccccc13)[C@@](C(=O)OC)(c1cc3c(cc1OC)N(C)[C@H]1[C@@](O)(C(=O)OC)[C@H](OC(C)=O)[C@]4(CC)C=CCN5CC[C@]31[C@@H]54)C2"
  LEUKOCYTE COUNT (x10E3/uL): 16.48
- COMPOUND: "CC[C@]1(O)C[C@@H]2CN(CCc3c([nH]c4ccccc34)[C@@](C(=O)OC)(c3cc4c(cc3OC)N(C)[C@H]3[C@@](O)(C(=O)OC)[C@H](OC(C)=O)[C@]5(CC)C=CCN6CC[C@]43[C@@H]65)C2)C1"
  LEUKOCYTE COUNT (x10E3/uL): 12.67
- COMPOUND: "COc1cccc2c1C(=O)c1c(O)c3c(c(O)c1C2=O)C[C@@](O)(C(=O)CO)C[C@@H]3O[C@H]1C[C@H](N)[C@@H](O)[C@H](C)O1 [EPIRUBICIN]"
  LEUKOCYTE COUNT (x10E3/uL): 11.43
- COMPOUND: "CC(=O)N[C@@H]1[C@H](Oc2c3cc4cc2Oc2ccc(cc2Cl)[C@@H](O[C@@H]2O[C@@H](CO)[C@@H](O)[C@H](O)[C@@H]2NC(C)=O)[C@@H]2NC(=O)[C@H](NC(=O)[C@@H]4NC(=O)[C@H]4NC(=O)[C@@H](Cc5ccc(c(Cl)c5)O3)NC(=O)[C@H](N)c3ccc(O)c(c3)Oc3cc(O)cc4c3)c3ccc(O)c(c3)-c3c(O[C@H]4O[C@H](CO)[C@@H](O)[C@@H](O)[C@@H]4O)cc(O)cc3[C@@H](C(=O)O)NC2=O)O[C@@H](CO)[C@@H](O)[C@@H]1O"
  LEUKOCYTE COUNT (x10E3/uL): 16.03
- COMPOUND: "COc1cccc2c1C(=O)c1c(O)c3c(c(O)c1C2=O)C[C@@](O)(C(=O)CO)C[C@@H]3O[C@H]1C[C@H](N)[C@H](O)[C@H](C)O1"
  LEUKOCYTE COUNT (x10E3/uL): 8.7

###

Organism: Rattus norvegicus
Assay: DrugMatrix - Regimen: Daily Repeat
Assay type: toxicity, organism-based, Sprague-Dawley
Set-up: regimen Daily Repeat, gender Male, age 6-8 weeks
Settings: in vivo, po, 1500 mg/kg, 120 h, tissue Plasma, route oral GAVAGE, dose level High, time 5 day, vehicle .5 % CMC

- COMPOUND: "Cc1cc(=O)n(-c2ccccc2)n1C [ANTIPYRINE]"
  ALBUMIN: "4.27 G/DL"
- COMPOUND: "CO[C@H]1/C=C/O[C@@]2(C)Oc3c(C)c(O)c4c(c3C2=O)C2=NC3(CCN(CC(C)C)CC3)NC2=C(NC(=O)/C(C)=C\\C=C\\[C@H](C)[C@H](O)[C@@H](C)[C@@H](O)[C@@H](C)[C@H](OC(C)=O)[C@@H]1C)C4=O [RIFABUTIN]"
  ALBUMIN: "3.85 G/DL"
- COMPOUND: "C[C@]1(Cn2ccnn2)[C@H](C(=O)O)N2C(=O)C[C@H]2S1(=O)=O [TAZOBACTAM]"
  ALBUMIN: "4.4 G/DL"
- COMPOUND: "CNC(=C[N+](=O)[O-])NCCSCc1ccc(CN(C)C)o1 [RANITIDINE]"
  ALBUMIN: "4.27 G/DL"
